Target: T1, human LRRC15 extracellular domain with C-terminal His tag (human, UniProt Q8TF66 22-538)
T1 construct: Recombinant, made in HEK293; the entry holds the extracellular domain and the His tag; SPR analyte; also called TPP-1545; hLRRC15 CT-His
T1 sequence: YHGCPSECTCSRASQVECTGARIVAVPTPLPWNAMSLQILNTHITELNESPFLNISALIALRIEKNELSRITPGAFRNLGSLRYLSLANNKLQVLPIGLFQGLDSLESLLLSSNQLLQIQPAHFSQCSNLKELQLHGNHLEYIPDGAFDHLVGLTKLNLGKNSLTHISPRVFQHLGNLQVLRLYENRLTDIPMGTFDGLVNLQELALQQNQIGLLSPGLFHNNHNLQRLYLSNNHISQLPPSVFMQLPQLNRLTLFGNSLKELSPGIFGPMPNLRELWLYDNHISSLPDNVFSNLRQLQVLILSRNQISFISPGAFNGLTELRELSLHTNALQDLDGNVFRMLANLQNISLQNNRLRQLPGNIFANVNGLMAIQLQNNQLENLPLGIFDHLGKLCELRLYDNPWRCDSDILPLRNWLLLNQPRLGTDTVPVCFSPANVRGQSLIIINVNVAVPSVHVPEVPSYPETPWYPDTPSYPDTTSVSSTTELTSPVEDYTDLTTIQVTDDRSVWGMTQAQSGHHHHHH
Assay: SPR (Example 6), overview table, repeats Table 9; head prints [M^-1]
Description: To assess the binding kinetics and affinity of anti-LRRC15 antibodies as well as their species cross-reactivity profile, binding assays were conducted using surface plasmon resonance (SPR). Binding assays were performed on a Biacore T200 instrument at 25° C. using assay buffer HBS EP+, 1 mg/ml BSA, 300 mM NaCl, 0.05% NaN3. […]
Kd values, listed per item

# BINDER, MEASURE_UNIT, Kd
measured = [
    ("TPP-17405 (antibody, human IgG1, kappa, V domains shown, also called 438H-M345-F05-hIgG1Kappa) VH: EVQLVQSGAEVKKPGASVKVSCKASGYKFSSYWIEWVKQAPGQGLEWIGEILPGSDTTNYNEKFKDRATFTSDTSINTAYMELSRLRSDDTAVYYCARDRGNYRAWFQYWGQGTLVTVSS VL: DIQMTQSPSSLSASVGDRVTITCRASQRISSYLNWYQQKPGGAPKFLIYYASSLQSGVPSRFSGSGSGTDYTLTISSLQPEDFATYYCDQGLELPWTFGGGTKVEIKR", "nM", 0.86),
    ("TPP-1633 (antibody, human IgG1, kappa, V domains shown, also called 060E-M016-G14-hIgG1) VH: EVQLLESGGGLVQPGGSLRLSCAASGFTFSGYMMQWVRQAPGKGLEWVSGIYPSGGYTNYADSVKGRFTISRDNSKNTLYLQMNSLRAEDTATYYCAREKASDLSGSYSEALDYWGQGTLVTVSS VL: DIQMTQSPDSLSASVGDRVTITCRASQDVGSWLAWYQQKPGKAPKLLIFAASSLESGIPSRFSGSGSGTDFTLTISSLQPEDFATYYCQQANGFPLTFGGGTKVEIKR", "nM", 150),
]
